Each recorded value in this set is attributed to patent US20250250357A1.

# TARGET OR TEST SYSTEM: T1, human MSLN protein endogenously expressed on OVCAR3 tumor cells (human, UniProt Q13421 296-598)
# T1 construct: whole, on cells; endogenous expression on a tumor cell line; also called human mesothelin
# T1 sequence (Q13421 other isoform, or with tags, fused parts or gaps): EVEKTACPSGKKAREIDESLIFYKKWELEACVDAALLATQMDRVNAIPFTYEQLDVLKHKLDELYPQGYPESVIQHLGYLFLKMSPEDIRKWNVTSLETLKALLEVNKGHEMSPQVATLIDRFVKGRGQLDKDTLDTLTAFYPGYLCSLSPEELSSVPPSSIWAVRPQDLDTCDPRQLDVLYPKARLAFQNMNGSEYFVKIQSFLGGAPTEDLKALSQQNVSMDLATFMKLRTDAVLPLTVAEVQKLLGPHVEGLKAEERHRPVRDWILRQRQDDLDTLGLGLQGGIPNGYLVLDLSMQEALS
# MEASUREMENT PROTOCOL: FACS on OVCAR3 cells;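 further: flow cytometry of chimeric antibody binding to OVCAR3 cells, 2 h on ice, read as cellular mean fluorescence intensity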
QUANTITY KIND: log10(EC50) (log10 of the value in nM)
Log10 applied to EC50; unit prior to transform: nM.

Query string: Could you share which log10(EC50) value was measured for S009-F8-36.12 (antibody, human IgG1, kappa, V domains shown, human-murine chimeric antibody, human IgG1/kappa constant regions) VH: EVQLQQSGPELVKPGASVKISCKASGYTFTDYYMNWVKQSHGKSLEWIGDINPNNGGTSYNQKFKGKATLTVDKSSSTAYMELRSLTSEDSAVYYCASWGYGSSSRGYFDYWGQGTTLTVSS VL: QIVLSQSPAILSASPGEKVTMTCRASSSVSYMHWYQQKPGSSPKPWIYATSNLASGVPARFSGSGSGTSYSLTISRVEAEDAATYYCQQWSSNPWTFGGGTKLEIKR ?
Result string: 1.18

Query string: Okay, and S009-F8-4.5 (antibody, human IgG1, kappa, V domains shown, human-murine chimeric antibody, human IgG1/kappa constant regions) VH: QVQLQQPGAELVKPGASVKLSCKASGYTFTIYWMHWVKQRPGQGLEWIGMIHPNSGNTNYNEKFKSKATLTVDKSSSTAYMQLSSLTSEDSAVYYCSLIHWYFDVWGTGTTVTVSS VL: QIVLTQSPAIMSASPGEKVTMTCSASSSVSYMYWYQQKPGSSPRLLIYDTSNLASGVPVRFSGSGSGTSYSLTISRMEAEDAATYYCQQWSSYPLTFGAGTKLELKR ?
Result string: 0.69

Query string: Okay, and S009-F8-32.3 (antibody, human IgG1, kappa, V domains shown, human-murine chimeric antibody, human IgG1/kappa constant regions) VH: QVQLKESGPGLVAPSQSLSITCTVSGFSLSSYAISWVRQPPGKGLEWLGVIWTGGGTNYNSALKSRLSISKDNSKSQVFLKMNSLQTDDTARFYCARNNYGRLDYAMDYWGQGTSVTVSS VL: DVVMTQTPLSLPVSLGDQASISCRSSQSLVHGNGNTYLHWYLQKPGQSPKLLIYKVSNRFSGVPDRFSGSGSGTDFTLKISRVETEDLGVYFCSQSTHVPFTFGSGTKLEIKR ?
Result string: 1.17

Query string: Okay, and S009-F8-33.12 (antibody, human IgG1, kappa, V domains shown, human-murine chimeric antibody, human IgG1/kappa constant regions) VH: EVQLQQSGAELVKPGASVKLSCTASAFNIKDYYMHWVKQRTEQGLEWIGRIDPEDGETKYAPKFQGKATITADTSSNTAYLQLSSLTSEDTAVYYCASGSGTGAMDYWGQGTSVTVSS VL: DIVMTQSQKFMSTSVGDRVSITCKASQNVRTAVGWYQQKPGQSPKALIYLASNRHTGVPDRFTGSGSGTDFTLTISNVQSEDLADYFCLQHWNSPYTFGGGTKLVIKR ?
Result string: 1.45

Query string: Okay, and S009-F8-8.22 (antibody, human IgG1, kappa, V domains shown, human-murine chimeric antibody, human IgG1/kappa constant regions) VH: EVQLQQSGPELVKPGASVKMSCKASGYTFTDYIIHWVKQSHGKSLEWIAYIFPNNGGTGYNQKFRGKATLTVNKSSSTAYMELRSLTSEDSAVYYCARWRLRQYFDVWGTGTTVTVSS VL: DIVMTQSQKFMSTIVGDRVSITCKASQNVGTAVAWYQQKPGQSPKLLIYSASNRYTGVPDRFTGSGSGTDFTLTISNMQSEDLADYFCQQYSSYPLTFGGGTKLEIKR ?
Result string: 1.00

Query string: Okay, and S009-F8-29.1 (antibody, human IgG1, kappa, V domains shown, human-murine chimeric antibody, human IgG1/kappa constant regions) VH: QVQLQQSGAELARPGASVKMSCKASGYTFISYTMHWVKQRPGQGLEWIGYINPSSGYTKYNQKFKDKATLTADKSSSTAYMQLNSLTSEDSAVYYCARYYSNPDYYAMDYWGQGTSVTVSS VL: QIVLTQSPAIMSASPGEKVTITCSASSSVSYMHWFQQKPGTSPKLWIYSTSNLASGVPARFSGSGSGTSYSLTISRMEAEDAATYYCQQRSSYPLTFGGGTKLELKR ?
Result string: 1.52

Query string: Okay, and S009-F8-15.19 (antibody, human IgG1, kappa, V domains shown, human-murine chimeric antibody, human IgG1/kappa constant regions) VH: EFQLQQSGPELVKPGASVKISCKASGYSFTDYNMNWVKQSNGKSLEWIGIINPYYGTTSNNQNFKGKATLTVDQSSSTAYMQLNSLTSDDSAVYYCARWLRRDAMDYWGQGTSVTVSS VL: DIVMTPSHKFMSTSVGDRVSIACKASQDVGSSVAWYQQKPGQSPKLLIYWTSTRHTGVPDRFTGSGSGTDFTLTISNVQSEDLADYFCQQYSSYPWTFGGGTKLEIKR ?
Result string: 0.50

Query string: Okay, and S009-F8-12.13 (antibody, human IgG1, kappa, V domains shown, human-murine chimeric antibody, human IgG1/kappa constant regions) VH: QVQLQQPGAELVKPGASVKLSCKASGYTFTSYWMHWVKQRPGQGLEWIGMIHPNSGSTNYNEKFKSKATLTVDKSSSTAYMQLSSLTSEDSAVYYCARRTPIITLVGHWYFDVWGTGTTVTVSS VL: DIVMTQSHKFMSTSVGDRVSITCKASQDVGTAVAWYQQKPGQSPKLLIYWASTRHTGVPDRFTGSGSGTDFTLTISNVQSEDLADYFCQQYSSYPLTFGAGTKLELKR ?
Result string: 0.35

Query string: Okay, and S009-F8-18.9 (antibody, human IgG1, kappa, V domains shown, human-murine chimeric antibody, human IgG1/kappa constant regions) VH: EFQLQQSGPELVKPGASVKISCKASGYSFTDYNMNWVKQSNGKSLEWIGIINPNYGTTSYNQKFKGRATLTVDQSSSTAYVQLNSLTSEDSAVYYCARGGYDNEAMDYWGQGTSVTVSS VL: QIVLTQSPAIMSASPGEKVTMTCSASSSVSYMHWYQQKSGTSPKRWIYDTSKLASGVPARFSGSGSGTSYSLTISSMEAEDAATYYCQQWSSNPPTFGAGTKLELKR ?
Result string: 1.38

Query string: Okay, and S009-F8-19.21 (antibody, human IgG1, kappa, V domains shown, human-murine chimeric antibody, human IgG1/kappa constant regions) VH: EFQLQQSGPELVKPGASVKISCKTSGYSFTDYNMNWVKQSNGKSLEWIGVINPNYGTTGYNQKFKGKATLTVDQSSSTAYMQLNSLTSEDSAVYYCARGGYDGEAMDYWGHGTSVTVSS VL: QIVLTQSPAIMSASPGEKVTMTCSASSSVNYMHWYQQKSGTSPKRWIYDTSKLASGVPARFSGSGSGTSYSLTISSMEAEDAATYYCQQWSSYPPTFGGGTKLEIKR ?
Result string: 0.71
